Source: the supplement of paper PMC11908140

B1: library; numbered along this chain (parent)
chain: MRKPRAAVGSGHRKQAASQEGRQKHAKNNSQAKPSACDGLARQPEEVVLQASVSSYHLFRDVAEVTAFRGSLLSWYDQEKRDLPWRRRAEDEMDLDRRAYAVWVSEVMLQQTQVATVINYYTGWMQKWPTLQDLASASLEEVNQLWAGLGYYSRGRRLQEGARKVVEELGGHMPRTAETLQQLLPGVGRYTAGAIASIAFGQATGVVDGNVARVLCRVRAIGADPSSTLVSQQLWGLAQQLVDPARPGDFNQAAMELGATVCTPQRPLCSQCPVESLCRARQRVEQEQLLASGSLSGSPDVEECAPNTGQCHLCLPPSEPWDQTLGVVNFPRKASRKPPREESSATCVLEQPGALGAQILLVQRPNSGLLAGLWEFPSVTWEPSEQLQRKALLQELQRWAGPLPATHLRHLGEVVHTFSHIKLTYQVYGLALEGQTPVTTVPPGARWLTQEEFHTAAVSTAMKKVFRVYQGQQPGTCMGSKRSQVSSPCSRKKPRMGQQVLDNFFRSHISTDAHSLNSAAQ

variants of: B1; test: 8OG:A repair function score (normalized; synonymous = 0, nonsense = -1) (normalized log-likelihood score); higher = more repair activity (WT-like); conditions: with 8OG:A DNA repair reporter (GFP) in HEK-293 MUTYH KO cells;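 also: cells sorted at 72 h after reporter transfection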
OBSERVATION TYPE: 8OG:A repair function score
API doc: respond with a numeric literal and nothing else, no unit.

Problem: Given the variant K481S , what is its reported 8OG:A repair function score?
Result: -0.00188

Problem: Given the variant Q202M , what is its reported 8OG:A repair function score?
Result: -0.234

Problem: Given the variant L355E , what is its reported 8OG:A repair function score?
Result: 0.0516
